Molecular target: human 5-HT3AR (Homo sapiens, UniProt P46098)
Construct: transfected with the human 5-HT3A subunit (PDB ID: P46098) in pcDNA3.1; expressed in transfected cells; cDNA in pcDNA3.1
Sequence (P46098 24-478): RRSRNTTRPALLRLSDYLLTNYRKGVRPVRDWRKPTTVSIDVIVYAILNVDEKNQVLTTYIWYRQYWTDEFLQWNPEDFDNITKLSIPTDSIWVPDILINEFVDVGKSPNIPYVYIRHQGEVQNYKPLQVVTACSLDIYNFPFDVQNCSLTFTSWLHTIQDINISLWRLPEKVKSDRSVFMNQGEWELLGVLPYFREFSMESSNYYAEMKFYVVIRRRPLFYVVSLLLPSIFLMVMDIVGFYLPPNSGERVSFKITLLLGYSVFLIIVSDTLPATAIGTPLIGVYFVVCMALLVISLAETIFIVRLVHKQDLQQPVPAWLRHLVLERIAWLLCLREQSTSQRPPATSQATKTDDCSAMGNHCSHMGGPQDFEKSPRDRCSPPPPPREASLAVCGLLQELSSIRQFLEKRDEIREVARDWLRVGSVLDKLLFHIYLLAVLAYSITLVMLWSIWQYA
Assay: 5-HT3AR radioligand displacement of [3H]granisetron, HEK293 membranes
Type: binding
Settings: displacement of [3H]granisetron, membranes of HEK293 cells expressing human 5-HT3AR; mean ± SEM, at least two measurements; n.a. = non active
result-type: Affinity (pKi) 5-HT3AR
Keep the answer to the number alone.

Some compounds with recorded Affinity (pKi) 5-HT3AR:
                            compound                              assay_system             result_type  numeric_readout
0                 N=C(N)NCCCc1ccccc1  human 5-HT3AR (Homo sapiens, UniProt P46098)  Affinity (pKi) 5-HT3AR              6.1
1  CN1CCN(c2cc(-c3ccccc3)nc(N)n2)CC1  human 5-HT3AR (Homo sapiens, UniProt P46098)  Affinity (pKi) 5-HT3AR              5.9
2              Nc1ccc2cc3ccccc3nc2c1  human 5-HT3AR (Homo sapiens, UniProt P46098)  Affinity (pKi) 5-HT3AR              6.0
3              c1nc(CC2CCCCC2)c[nH]1  human 5-HT3AR (Homo sapiens, UniProt P46098)  Affinity (pKi) 5-HT3AR              5.9
4      CN1CCN(c2ccc3cc(Cl)ccc3n2)CC1  human 5-HT3AR (Homo sapiens, UniProt P46098)  Affinity (pKi) 5-HT3AR              6.6

Quick one: Affinity (pKi) 5-HT3AR of CN1CCC(=Cc2nc3cc(Cl)ccc3[nH]2)CC1 ?
8.8

Quick one: Affinity (pKi) 5-HT3AR of CN1CCN(c2nc3ccccc3nc2O)CC1 ?
7.9

Quick one: Affinity (pKi) 5-HT3AR of Clc1ccc(C2CCNC2)cc1 (centres unmarked) ?
6.1

----------
Target: human H4R (Homo sapiens, UniProt Q9H3N8)
Sequence (Q9H3N8 whole entry): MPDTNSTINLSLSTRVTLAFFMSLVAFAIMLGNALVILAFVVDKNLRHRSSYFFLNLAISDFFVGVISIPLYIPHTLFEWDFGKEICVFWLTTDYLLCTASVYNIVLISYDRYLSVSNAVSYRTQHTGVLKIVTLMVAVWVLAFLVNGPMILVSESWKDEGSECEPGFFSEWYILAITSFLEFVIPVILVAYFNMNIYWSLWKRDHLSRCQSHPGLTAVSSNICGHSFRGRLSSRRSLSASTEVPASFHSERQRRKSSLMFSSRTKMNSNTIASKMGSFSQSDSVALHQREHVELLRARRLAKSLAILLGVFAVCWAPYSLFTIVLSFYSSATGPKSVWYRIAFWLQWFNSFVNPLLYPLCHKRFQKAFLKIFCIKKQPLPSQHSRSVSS
Test: H4R radioligand displacement of [3H]histamine, HEK293 membranes
Format: binding
Parameters: expressed in transfected cells; host or cells: HEK293T (main text: HEK293), transient transfection with polyethyleneimine
Conditions: displacement of [3H]histamine, membranes of HEK293 cells transiently expressing human H4R; mean ± SEM, at least three measurements; n.a. = non active
Attribute: Affinity (pKi) H4R

Some molecules with recorded Affinity (pKi) H4R:
                     chemical_smiles     result
0     CN1CCN(c2cc(-c3ccccc3)ncn2)CC1  6.7 ± 0.0
1  CN1CCN(c2cc(-c3ccccc3)nc(N)n2)CC1  8.2 ± 0.1
2              c1cncc(Cc2c[nH]cn2)c1  7.0 ± 0.1

Quick one: Affinity (pKi) H4R of CN1CCN(c2ccc3cc(Cl)ccc3n2)CC1 ?
6.2 ± 0.0

Quick one: Affinity (pKi) H4R of c1ccc(CNCCc2c[nH]cn2)cc1 ?
6.2 ± 0.1

Quick one: Affinity (pKi) H4R of CN1CCN(c2nc3ccccc3nc2O)CC1 ?
7.2 ± 0.0
